Recorded activity change, negative = decrease by entry
assay-method-text: HRE-luciferase induction in zinc-containing medium – U2OS HRE-luc cells, dry powder, mechanism study for HIF pathway activator project, dose response (AID 504324)
setup-conditions: U2OS HRE-luciferase reporter, zinc medium, luminescence; at 38 µM (top of the series)
The reply should contain only the number, in %.

Here's what some known entries look like.
structure-smiles	quantity-unit	activity change, negative = decrease
O=C(c1cc(-c2ccccc2)on1)N1CCC(N2CCCC2)CC1	%	6.15
c1ccc(-c2nnc(-c3ccccn3)nc2NCCCN2CCOCC2)cc1	%	5050
CC(C)(C)CCNC(=O)c1cc(-c2ccccc2)on1	%	651
c1ccc(-c2cccc(CNc3nc(-c4ccccn4)nnc3-c3ccccc3)c2)cc1	%	4810
Cc1ccccc1CNC(=O)c1cc(-c2ccccc2)on1	%	25.4

Query: Report activity change, negative = decrease, nothing else, for this compound: C[C@@H](Nc1nc(-c2ccccn2)nnc1-c1ccccc1)C1CCCCC1
Response: 4780

Query: Report activity change, negative = decrease, nothing else, for this compound: O=C(c1cc(-c2ccccc2)on1)N1CCC(N2CCOCC2)CC1
Response: -1.04

Query: Report activity change, negative = decrease, nothing else, for this compound: O=C(NCc1ccccc1)c1cc(-c2ccccc2)on1
Response: 64

====

assay-method-text: HRE-luciferase induction in zinc-containing medium – U2OS HRE-luc cells, dry powder, mechanism study for HIF pathway activator project, dose response (AID 504324)
setup-conditions: U2OS HRE-luciferase reporter, zinc medium, luminescence; at 38 µM (top of the series)
Active and inactive are the calls of the source.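 How the source made its calls: active means compounds lowering the signal whose fitted half-maximal concentration is at most ten times their top tested dose; inconclusive means flat curve with a 30 to 70% drop, or poor fit; inactive means rising signal, flat curve, or potency beyond limit.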
measure-name: activity change, negative = decrease

Here's what some known entries look like.
compound	experimental-result
CN(C)CCNC(=O)c1cc(-c2ccccc2)on1	31.3% (inactive)
O=C(NCC1CCCCC1)c1cc(-c2ccccc2)on1	158% (inactive)
Cc1ccc(CNc2nc(-c3ccccn3)nnc2-c2ccccc2)cc1C	4550% (inactive)

Query: Report activity change, negative = decrease, nothing else, for this compound: c1ccc(-c2csc(Nc3nc(-c4ccccn4)nnc3-c3ccccc3)n2)cc1
Response: 315% (inactive)

Query: Report activity change, negative = decrease, nothing else, for this compound: Cc1ccc(CNC(=O)c2cc(-c3ccccc3)on2)cc1
Response: 10.4% (inactive)

Query: Report activity change, negative = decrease, nothing else, for this compound: CC(Nc1nc(-c2ccccn2)nnc1-c1ccccc1)c1ccccc1 (centres undefined)
Response: 4380% (inactive)

Query: Report activity change, negative = decrease, nothing else, for this compound: N#CC1(c2ccccc2)CCN(Cc2ccc(O)c3ncccc23)CC1
Response: 208% (inactive)

Query: Report activity change, negative = decrease, nothing else, for this compound: O=C(Nc1ncc(-c2ccccc2)o1)c1cc(-c2ccccc2)on1
Response: 18.1% (inactive)

Query: Report activity change, negative = decrease, nothing else, for this compound: c1ccc(-c2nnc(-c3ccccn3)nc2NCCN2CCOCC2)cc1
Response: 3780% (inactive)

====

Recorded activity change, negative = decrease by entry
assay-method-text: HRE-luciferase induction in zinc-containing medium – U2OS HRE-luc cells, dry powder, mechanism study for HIF pathway activator project, dose response (AID 504324)
setup-conditions: U2OS HRE-luciferase reporter, zinc medium, luminescence; at 38 µM (top of the series)
The reply should contain only the number, in %.

Here's what some known entries look like.
structure-smiles	activity change, negative = decrease, %
c1ccc(-c2nnc(-c3ccccn3)nc2NCCc2ccccn2)cc1	4700
c1ccc(-c2nnc(-c3ccccn3)nc2N2CCC(N3CCOCC3)CC2)cc1	4120
O=C(NCCCO)c1cc(-c2ccccc2)on1	811
O=C(c1cc(-c2ccccc2)on1)N1CCc2cccnc21	44
O=C(Nc1nc2ccccc2s1)c1cc(-c2ccccc2)on1	12.6

Query: Report activity change, negative = decrease, nothing else, for this molecule: O=C(Nc1ccc2ccccc2n1)c1cc(-c2ccccc2)on1
Response: 22.8

Query: Report activity change, negative = decrease, nothing else, for this molecule: O=C(Nc1cn2ccccc2n1)c1cc(-c2ccccc2)on1
Response: 41.5

Query: Report activity change, negative = decrease, nothing else, for this molecule: Cn1c(NC(=O)c2cc(-c3ccccc3)on2)nc2ccccc21
Response: -2.21

Query: Report activity change, negative = decrease, nothing else, for this molecule: C[C@@H](Nc1nc(-c2ccccn2)nnc1-c1ccccc1)c1ccccc1
Response: 4300

Query: Report activity change, negative = decrease, nothing else, for this molecule: CN1CCN(C(=O)c2cc(-c3ccccc3)on2)CC1
Response: 13.1

Query: Report activity change, negative = decrease, nothing else, for this molecule: O=C(NCCCCO)c1cc(-c2ccccc2)on1
Response: 1710

Query: Report activity change, negative = decrease, nothing else, for this molecule: c1ccc(-c2cnc(Nc3nc(-c4ccccn4)nnc3-c3ccccc3)s2)cc1
Response: 44.9
